Each recorded value in this set is attributed to patent US20100130424A1.

Target: T1, human CRH receptor type 2 (human, UniProt Q13324 1-411)
T1 sequence (looked up): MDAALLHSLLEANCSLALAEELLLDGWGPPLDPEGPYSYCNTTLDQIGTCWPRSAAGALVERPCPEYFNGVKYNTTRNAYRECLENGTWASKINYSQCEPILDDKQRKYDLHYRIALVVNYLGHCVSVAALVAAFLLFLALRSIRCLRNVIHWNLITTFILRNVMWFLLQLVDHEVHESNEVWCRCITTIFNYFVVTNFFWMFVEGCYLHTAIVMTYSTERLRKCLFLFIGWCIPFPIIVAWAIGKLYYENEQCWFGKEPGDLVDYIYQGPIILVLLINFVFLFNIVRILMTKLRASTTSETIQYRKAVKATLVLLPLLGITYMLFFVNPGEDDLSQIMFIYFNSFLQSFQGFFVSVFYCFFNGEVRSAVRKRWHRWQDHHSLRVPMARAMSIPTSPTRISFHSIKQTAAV
Experiment: cell-based or functional assay
No end group written: not given here.
Quantity: pA50, cAMP

binder="TKFTLSLDVPTNIMCLLFNIAKAKNLRAQAAANAHLMAQI-NH2 [Cys-variant CRHR2 peptide agonist, SEQ ID NO: 16]" experimental_value="8.93 -log M"
binder="TKFTLSLDVPTNIMNLLFNIACAKNLRAQAAANAHLMAQI-NH2 [Cys-variant CRHR2 peptide agonist, SEQ ID NO: 23]" experimental_value="8.55 -log M"
binder="TKFTLSLDVPTNIMNLLFNIAKAKNLRAQAAANAHLCAQI (NES-PEG (about 20 kDa) on Cys 37; C-terminal amide) [Pegylated Cys-variant CRHR2 peptide agonist (NES linker, PEG about 20 kDa), SEQ ID NO: 91]" experimental_value="~6.23 -log M"
binder="TKFTLSLDVPTNIMNLLFCIAKAKNLRAQAAANAHLMAQI-NH2 [Cys-variant CRHR2 peptide agonist, SEQ ID NO: 20]" experimental_value="9 -log M"
binder="TKFTLSLDVCTNIMNLLFNIAKAKNLRAQAAANAHLMAQI (NES-PEG (about 20 kDa) on Cys 10; C-terminal amide) [Pegylated Cys-variant CRHR2 peptide agonist (NES linker, PEG about 20 kDa), SEQ ID NO: 64]" experimental_value="~6.98 -log M"
